Please respond with reported gcPBM binding intensity (ln) for every item in the list.
- Test system: PfAP2-HC AP2 domain (GST-tagged)
- procedure.summary: gcPBM binding intensity (ln(normalized median fluorescence intensity)); higher = stronger DNA binding
The full ranking holds about 25,000 sequences; the median of “ln(normalized median fluorescence intensity)” is about 9.7, and the highest 2% start at about 11. The full list was thinned out, with the highest values kept by preference.
Kindly provide the number alone.

Enter measured gcPBM binding intensity (ln), system PfAP2-HC AP2 domain (GST-tagged), for the sequence shown: TATTAATACGGACACACACACACACTAGATAAAATA [CACACA_site4295]
10.8

// output gcPBM binding intensity (ln); input AACAAATACGGACACACACACACACTAGAAAAAAAA [CACACA_site4442] ; system PfAP2-HC AP2 domain (GST-tagged)
11

# lookup: PfAP2-HC AP2 domain (GST-tagged) gcPBM binding intensity (ln), key = AACAAACACGGACACACACACACACTAGAATGATTA [CACACA_site5364]
10.7

Find gcPBM binding intensity (ln) for ACAAAAAAAAAAAAAATACACACACATAAAAAAAAA [TGCATGCA_negctrl_site333] on PfAP2-HC AP2 domain (GST-tagged) and write it down.
10.2

State gcPBM binding intensity (ln) on PfAP2-HC AP2 domain (GST-tagged). Entry: TAAAGGCAAACAAACACACACACATATATACATATA [CACACA_site2123]
11.1

====

- Test system: PfAP2-HC AP2 domain (GST-tagged)
- procedure.summary: gcPBM binding intensity (ln(normalized median fluorescence intensity)); higher = stronger DNA binding
In all, about 25,000 sequences were measured (“ln(normalized median fluorescence intensity)”: median about 9.7, highest 2% from about 11 on). The full list was thinned out, with the highest values kept by preference.
Lab note: anything with gcPBM binding intensity (ln) at or over 10 counts as fulfilled; the rest go in not fulfilled.

Determine whether this sequence has gcPBM binding intensity (ln) no lower than 10: AAAGCACCCAGGCACACACACAAAGGAAAAGAAAAA [CACACA_site232]
fulfilled

Please indicate if the recorded gcPBM binding intensity (ln) for TAGTATCAATCTTATACATGCATAAAATAATTATAA [TGCATGCA_site1052] meets or exceeds 10.
not fulfilled

Check this sequence for gcPBM binding intensity (ln) at or above 10: ATAAATATAACATATTGTACCCTTAAAAAGGAACAA [XGTACX_site352]
not fulfilled

Has TTTTATGCATGTGAAGTGCAAAATAAAAAATAAAAT [GTGCAC_site9612] a recorded gcPBM binding intensity (ln) greater than or equal to 10?
not fulfilled

Check this sequence for gcPBM binding intensity (ln) at or above 10: TTAAGCCGCAATATGGGTACATAGGAAGAAGGGGAA [XGTACX_site8397]
not fulfilled

Assess whether reported gcPBM binding intensity (ln) for TTTCTAATTATTTCCCTTCAAATATATTAATATCGT [CACACA_negctrl_site429] sits at 10 or higher.
not fulfilled

Can CATACACAAGAAAATTCACACACACCCATATATATA [CACACA_site9288] be said to have gcPBM binding intensity (ln) at or above 10?
fulfilled

Evaluate TTAACAAAGAAACACACACACACACCCAAAAAAAAA [CACACA_site516] : gcPBM binding intensity (ln) at minimum 10?
fulfilled

gcPBM binding intensity (ln) >= 10 for TATTTTTCTTTATTGGTACACACGAAAAAAAAATTG [CACACA_site3054] ?
not fulfilled

Tell me whether gcPBM binding intensity (ln) is at least 10 here: TACACAAGAAAATTCACACACACACCGATATATATA [CACACA_site6008]
fulfilled

For this sequence, is measured gcPBM binding intensity (ln) 10 or higher? AAAGAAGGGAAACACACACACACACCCACAAAAAAA [CACACA_site3766]
fulfilled

Check this sequence for gcPBM binding intensity (ln) at or above 10: GTTATATTCCTACAGAGTACATAAAAATGCACATCA [XGTACX_site1948]
not fulfilled

gcPBM binding intensity (ln) >= 10 for TAAAAAATAAAATAATGTACATATGAATTATATATT [XGTACX_site8398] ?
not fulfilled

# bool: gcPBM binding intensity (ln) of GCGAAATATTATTATAGTATACAAATACTTCTATGA [CACACA_negctrl_site197] >= 10
not fulfilled

Assess whether reported gcPBM binding intensity (ln) for ATGTACCTATTTCATACACACACACCCACAAACAAA [CACACA_site8232] sits at 10 or higher.
fulfilled

gcPBM binding intensity (ln) >= 10 for CAAAAAAATGTGAAGGCATGCAAATATGTAAAATAA [TGCATGCA_site921] ?
fulfilled

Is reported gcPBM binding intensity (ln) greater than or equal to 10 here: AATTAACAAAAACACACACACACACCGACAAAAAAA [CACACA_site4444]
fulfilled

Given TACACAAGAAAATTCACACACACACCCATATATATA [CACACA_site3879] , state whether its gcPBM binding intensity (ln) is at least 10.
fulfilled

Dear colleague, could you confirm whether AAAAAAAAAAAAAAAAGTACAAATTTAAAAATGTGT [XGTACX_site112] has gcPBM binding intensity (ln) at or above 10?
not fulfilled

Please tell me: is the sequence `AAAAAAATAGTCTTCTTGCACTTTTTAATTTATTTT` at or over 10 in terms of gcPBM binding intensity (ln)?
not fulfilled

In plain terms: is recorded gcPBM binding intensity (ln) at least 10 for TTTTTCATAAATATATGTACATATATTTTATATAAC [XGTACX_site3402] ?
not fulfilled

Form field: gcPBM binding intensity (ln) at least 10? Entry: CACAAACAAAAACACACACACACACCGACAAAAATG [CACACA_site5362]
fulfilled

Form field: gcPBM binding intensity (ln) at least 10? Entry: CACACCCACCAACACACACACAAAAAAAAAAAGAAA [CACACA_site500]
fulfilled

Please check the record AAAAAAAAAAAACACACACACACACCGACAAAATAT [CACACA_site8411] and state if its gcPBM binding intensity (ln) is at or above 10.
fulfilled

Item TTATTGTAAATATATGCATGTGCAAAATGAAAAAAA [TGCATGCA_site399] with gcPBM binding intensity (ln) of 10 or above?
not fulfilled

====

- Tested on: PfAP2-HC AP2 domain (GST-tagged)
- procedure.summary: gcPBM binding intensity (ln(normalized median fluorescence intensity)); higher = stronger DNA binding
In all, about 25,000 sequences were measured (“ln(normalized median fluorescence intensity)”: median about 9.7, highest 2% from about 11 on). Only a selection was taken, and the highest values are over-represented in it overall.
value.type: gcPBM binding intensity (ln)
# output: bare number, no unit

Tell us which gcPBM binding intensity (ln) value is on record for CAACATTCGTATATCACACATTTGCATGTTGTCAAT [CACACA_site4470]
9.78

Supply measured gcPBM binding intensity (ln) of TGAATATTTCTATATACACACATATATATATATATA [CACACA_site3451] in your reply.
9.74

Specify gcPBM binding intensity (ln) for AAAAAAAAATTAAAAACACACATATAAATAAATATA [CACACA_site6845] and stop.
9.8

Write down gcPBM binding intensity (ln) measured for item TTAAAAAAAAAACACACACACATACACATATATATA [CACACA_site3299]
11.1

For the sequence AAAAAAAAAAAACATACACACACATATATATATATA [CACACA_site8452] , give its reported gcPBM binding intensity (ln).
10.7

====

- Tested on: PfAP2-HC AP2 domain (GST-tagged)
- procedure.summary: gcPBM binding intensity (ln(normalized median fluorescence intensity)); higher = stronger DNA binding
Over roughly 25,000 sequences, “ln(normalized median fluorescence intensity)” has its median near 9.7; the highest 2% begin near 11. Many of the other results were omitted from the sample, so the highest values are more common in it than they were.
value.type: gcPBM binding intensity (ln)
Lab note: record just the number, no unit beside it.

Answer with the recorded gcPBM binding intensity (ln) of CATTTGCCCAGGCACACACACATAAAAAGAAAAATA [CACACA_site356] only.
10.2

Consider the sequence TGAATAATAAAAAATACACACACATATATATATATT [CACACA_site9146] . State its measured gcPBM binding intensity (ln).
10.1

Report measured gcPBM binding intensity (ln); entry is CATTTGCACCCGCACACACACATAAAAAGAAAAATA [CACACA_site4350]
11.1

Answer with the recorded gcPBM binding intensity (ln) for the sequence listed here: TAAACATTTTTGCACGCACACAAAAAAAAAATAAAA [CACACA_site167]
10.3

# return recorded gcPBM binding intensity (ln) for entry ATCATTTGCATACGCACACACACATAAAAAGAAAAA [CACACA_site355]
10.9

// fetch gcPBM binding intensity (ln) given entry TTTTTTTTTTTGATTTGTACACAAAAAAAATATATG [XGTACX_site4547]
9.42

Report measured gcPBM binding intensity (ln); entry is ATCATTTGCTCACGCACACACACATAAAAAGAAAAA [CACACA_site4349]
10.2

For AAAAAAAAAAAATACACACAAACACAAATTAAATAA [CACACA_site3809] , write its gcPBM binding intensity (ln).
10.3

Supply reported gcPBM binding intensity (ln) belonging to this sequence: GAATTTCAACAAAGTAGTACATTTTATAGTAATTGG [XGTACX_site2319]
9.48

src = the supplement of paper PMC11417369
